// data source = ChEMBL document CHEMBL3046732

In what follows, each item is paired with its MIC for Salmonella typhimurium.
Use µg/mL as the unit, but write only the number.

Example cases with answers are listed next.
chemical_structure=CCc1ccc(NC2=NN=Cc3cc4cccc(C)c4nc3S2)cc1 reported_value=1000
chemical_structure=Cc1c(Cl)ccc2cc3c(nc12)SC(Nc1ccccc1F)=NN=C3 reported_value=500
chemical_structure=Cc1ccc(NC2=NN=Cc3cc4ccc(Cl)c(C)c4nc3S2)c(C)c1 reported_value=500
chemical_structure=Cc1cccc2cc3c(nc12)SC(Nc1ccccc1F)=NN=C3 reported_value=250

Prompt: // fetch MIC; item: Cc1ccc2nc3c(cc2c1)C=NN=C(NCc1ccccc1)S3 ; system: Salmonella typhimurium
Response: 1000

Prompt: // fetch MIC; item: COc1ccc2nc3c(cc2c1)C=NN=C(Nc1cccc(Cl)c1)S3 ; system: Salmonella typhimurium
Response: 500

Prompt: // fetch MIC; item: CCc1ccc(NC2=NN=Cc3cc4cc(OC)ccc4nc3S2)cc1 ; system: Salmonella typhimurium
Response: 500

Prompt: // fetch MIC; item: Cc1ccc2nc3c(cc2c1)C=NN=C(NCCN1CCOCC1)S3 ; system: Salmonella typhimurium
Response: 1000
